# Test system: FMC63
# Sequence (as listed by the source): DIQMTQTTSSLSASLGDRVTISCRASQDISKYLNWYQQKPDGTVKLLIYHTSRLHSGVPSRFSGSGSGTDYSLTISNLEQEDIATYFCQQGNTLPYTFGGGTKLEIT
# Sequence (as listed by the source): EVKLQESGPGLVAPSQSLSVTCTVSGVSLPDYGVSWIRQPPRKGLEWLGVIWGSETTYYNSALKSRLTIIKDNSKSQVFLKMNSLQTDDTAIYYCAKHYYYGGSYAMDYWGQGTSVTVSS
# procedure details: CD19 variant binding to anti-CD19 antibody FMC63 (score)
# setup conditions: Table 1A, CD19 single mutants (positions of SEQ ID NO:2)
parameter: FMC63 Binding Score

Q) Param item = L59S: CD19 variant (protein) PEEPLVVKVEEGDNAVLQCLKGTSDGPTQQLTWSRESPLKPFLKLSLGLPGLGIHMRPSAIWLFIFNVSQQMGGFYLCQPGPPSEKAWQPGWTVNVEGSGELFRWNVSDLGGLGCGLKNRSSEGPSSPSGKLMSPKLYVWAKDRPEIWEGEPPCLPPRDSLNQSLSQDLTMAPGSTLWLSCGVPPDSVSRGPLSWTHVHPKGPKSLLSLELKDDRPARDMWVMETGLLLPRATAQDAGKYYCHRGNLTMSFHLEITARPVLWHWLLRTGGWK ; retrieve measured FMC63 Binding Score.
A) 6.4 ± .4
